All values here come from PubChem BioAssay (NCATS).

Test system: CRL-7250
Assay: Cytotoxic Profiling of Annotated Libraries Using Quantitative High-Throughput Screening (AID 1296008); note: % is set by controls: 0 for no effect and ±100 for the full control effect; nearly all actives have a fitted effect of over 60% in size
Details: Five cell lines viability, CellTiter-Glo ATP luminescence, 48-72 h; stronger effect = lower value
Protocol: Cell-based phenotypic screening is a commonly used approach to discover biological pathways, novel drug targets, chemical probes and high-quality hit-to-lead molecules. […] A pintool (Kalypsys) was used to transfer 23 nL of compound solution to the 1536-well assay plates. […] Plates were left at room temperature for 10 min before imaging the ATP-coupled luminescence using a ViewLux microplate imager (PerkinElmer, Waltham, MA).
Inconclusive results are not listed.
Please respond with reported max response for every item in the list.
Report only the number, with the unit % understood.

Exercise: If you can, please state the reported max response value of Cc1cc(O)cc2c1O[C@](C)(CCC[C@H](C)CCC[C@H](C)CCCC(C)C)CC2 .
Key: -1.48

Exercise: Look at this compound and give its reported max response. O=c1cc(CO)occ1O
Key: -3.51

Exercise: Reported max response, compound CCn1cc(C(=O)O)c(=O)c2cnc(N3CCNCC3)nc21 : ____
Key: -6.3

Exercise: Look at this compound and give its reported max response. C/C(=C(\CCOP(=O)(O)O)SC(=O)c1ccccc1)N(C=O)Cc1cnc(C)nc1N
Key: -3.12

Exercise: What value of max response has been reported for the following compound? O=c1[nH]c(=O)c2[nH]c(=O)[nH]c2[nH]1
Key: -3.74

Exercise: Value lookup for max response; key = CCCCc1ncc(/C=C(\Cc2cccs2)C(=O)O)n1Cc1ccc(C(=O)O)cc1
Key: 0.696

Exercise: # query: max response of entry O=Cc1ccccc1C=O
Key: -8.99

Exercise: // max response lookup, key: O=C(O)[C@H](O)c1ccccc1
Key: -7.55

Exercise: GET /values?readout=max response&item= CC12CCC(CC1)C(C)(C)O2
Key: 3.08

Exercise: Entry C[C@]12CC[C@@H]3c4ccc(O)cc4CC[C@H]3[C@@H]1CC[C@@H]2OC(=O)CCC1CCCC1 has what max response?
Key: -19.6

Exercise: Record request: max response value, item CN(C)CC[C@@H](c1ccc(Cl)cc1)c1ccccn1
Key: 4.72

Exercise: If you can, please state the reported max response value of NC(=O)c1ncn([C@@H]2O[C@H](CO)[C@@H](O)[C@H]2O)c1N .
Key: -9.1

Exercise: // returns reported max response for input NC(=O)NC(=O)Cc1ccccc1
Key: 3.98

Exercise: What does the record list as max response for CC(COc1ccccc1)NC(C)C(O)c1ccc(O)cc1 (centres undefined) ?
Key: -14.7

Exercise: Consider the compound OC[C@H]1O[C@@H](O[C@@H]2[C@@H](CO)O[C@](O)(CO)[C@H]2O)[C@H](O)[C@@H](O)[C@H]1O and give its measured max response.
Key: -1.41

Exercise: Suppose we examine the compound CCCOC(=O)c1ccccc1 ; what max response value has been reported?
Key: -5.05

Exercise: # lookup: max response of CC1CC(OC(=O)C(O)c2ccccc2)CC(C)(C)N1C (centres undefined)
Key: -13.8

Exercise: What value of measured max response is listed for CCOC(CN1CCN(CC(C)C(=O)c2ccccc2)CC1)c1ccccc1 (centres undefined) ?
Key: -5.72

Exercise: If you can, please state the reported max response value of Cc1cc(C(C#N)c2ccc(Cl)cc2)c(Cl)cc1NC(=O)c1cc(I)cc(I)c1O (centres undefined) .
Key: -2.5

Exercise: So what's the measured max response for this one? C[C@H](N)[C@H](O)c1cccc(O)c1
Key: -3.27

Exercise: # query: max response of entry O=C(O)c1ccccc1O
Key: 0.122

Exercise: State the recorded max response for this entry: CC(O)CN(CCN(CC(C)O)CC(C)O)CC(C)O (centres undefined)
Key: 4.33

Exercise: Item C[C@@H]1CCN(C(=O)[C@H](CCCN=C(N)N)NS(=O)(=O)c2cccc3c2NC[C@H](C)C3)[C@@H](C(=O)O)C1 has what recorded max response?
Key: 0.468

Exercise: Look up max response for this compound: Cc1cccc(C)c1NC(=O)CN(CC(=O)O)CC(=O)O
Key: 0.46
